Just for reference, PubChem BioAssay (NCI) is where these values come from.

System: ACHN renal
protocol-text: NCI-60 one-dose screen, 48 h
measurement-setup: 10 µM unless noted
Compounds without any hit were thinned out: in the full panel of roughly 83,000, 20% have a hit. Active and inactive are the calls of the source. How the source made its calls: active means growth percent below 10; inactive means the rest.
Classes used: active, inactive

INSERT INTO results (molecule, subject_of_test, classification) VALUES
  ('O=C1[C@@H]2Cc3c([nH]c4ccccc34)[C@H](c3c(Cl)cccc3Cl)N2C(=O)CN1C1CCN(Cc2ccccc2)CC1', 'ACHN renal', 'inactive'),
  ('Cc1ccc(-c2nnc3sc(C4=Cc5ccccc5OC=C4)nn23)cc1', 'ACHN renal', 'inactive'),
  ('N=c1c2cc(-c3ccccc3)oc2ncn1/N=C/c1ccccc1', 'ACHN renal', 'inactive'),
  ('COc1ccc(S(=O)(=O)NCCCNc2nccc(-n3cnc4ccccc43)n2)cc1', 'ACHN renal', 'inactive'),
  ('CC1OC(O[C@@H]2[C@H](O)C(CO)OC(O[C@H]3COC(O[C@H]4CC[C@]5(C)[C@H]6CC[C@]78OC[C@@]9(CCC(C)(C)C[C@H]97)[C@H](O)C[C@@]8(C)[C@]6(C)CC[C@H]5C4(C)C)[C@@H](OC4OC(CO)[C@@H](O)[C@@H](O)[C@@H]4O)[C@@H]3O)[C@H]2OC2OC[C@@H](O)[C@@H](O)[C@@H]2O)[C@@H](O)[C@@H](O)[C@H]1O (stereo partly drawn)', 'ACHN renal', 'active'),
  ('CCCCCCNC(=O)Oc1ccc(/C(=C(\C)c2ccc(Cl)cc2)c2ccc(OCCN(C)C)cc2)cc1', 'ACHN renal', 'inactive'),
  ('CCNC(=O)Oc1ccc(/C(=C(/C)c2ccc(Cl)cc2)c2ccc(OCCN3CCCC3)cc2)cc1', 'ACHN renal', 'inactive'),
  ('C=CCn1c(SCC(=O)Nc2cccc(C(=O)/C=C/c3ccc(Br)cc3)c2)nc2ccccc2c1=O', 'ACHN renal', 'inactive');

###

Tested on: COLO 205 colon
protocol-text: NCI-60 one-dose screen, 48 h
measurement-setup: 10 µM unless noted
Method: Cells are grown in 96 well plates and exposed to the test compound for 48 hours. Compounds are tested at a single concentration, which is 10^-5 M for most compounds. The reported endpoint is percent growth (GI% or GIPRCNT), where numbers from 0 - 100% represent growth inhibition, and numbers from -100% - 0 represent cell death. For example, a value of 40 represents 60% growth inhibition. A value of 0 means no net growth occurred over the course of the experiment. […]
Compounds without any hit were thinned out: in the full panel of roughly 83,000, 20% have a hit. Activity calls are given as the source filed them. Rule for the calls: active = growth percent below 10; inactive = the rest.
Classes used: active, inactive

INSERT INTO measurements (compound, subject_of_test, classification) VALUES
  ('CC(=O)NC(C)(C)C(=O)N1CCC[C@H]1C(=O)NC(C)(C)C(=O)N[C@@H](C)C(=O)NC(C)(C)C(=O)NC(C)(C)C(=O)N[C@@H](CCC(N)=O)C(=O)NC(C)(C)C(=O)N[C@H](C(=O)NC(C)(C)C(=O)NCC(=O)N[C@@H](CC(C)C)C(=O)NC(C)(C)C(=O)N1CCC[C@H]1C(=O)N[C@H](C(=O)NC(C)(C)C(=O)NC(C)(C)C(=O)N[C@@H](CCC(N)=O)C(=O)N[C@@H](CCC(N)=O)C(=O)N[C@H](CO)Cc1ccccc1)C(C)C)C(C)C', 'COLO 205 colon', 'active'),
  ('N#Cc1c(NC(=O)c2ccc(F)c(Cl)c2)sc2c1CCC(=O)C2', 'COLO 205 colon', 'active'),
  ('CC1OC(O[C@@H]2[C@H](O)C(CO)OC(O[C@H]3COC(O[C@H]4CC[C@]5(C)[C@H]6CC[C@]78OC[C@@]9(CC[C@](C)(C=O)C[C@H]97)C(=O)C[C@@]8(C)[C@]6(C)CC[C@H]5C4(C)C)[C@@H](O)[C@@H]3O)[C@H]2OC2OC[C@@H](O)[C@@H](O)[C@@H]2O)[C@@H](O)[C@@H](O)[C@H]1O (stereo not given in full)', 'COLO 205 colon', 'inactive'),
  ('Cc1ccc(-n2cc(/C=C/C(=O)c3ccc(S(C)(=O)=O)cc3)c(-c3ccc(S(C)(=O)=O)cc3)n2)cc1', 'COLO 205 colon', 'inactive'),
  ('COc1cc2oc(-c3cccc(NC(=O)c4cc(NC(=O)[C@H](C)NC(=O)OC(C)(C)C)ccc4C)c3)cc(=O)c2c(OC)c1OC', 'COLO 205 colon', 'inactive');

###

Let's look at some molecules and their measured growth.
Test system: SNB-75 CNS
protocol-text: NCI-60 one-dose screen, 48 h (100 = growth as untreated, 0 = no growth, -100 = all killed)
measurement-setup: 10 µM unless noted
The panel holds about 83,000 compounds, 20% with a hit somewhere; the sample as a whole holds those more often. Calls of active or inactive are those of the source. The calls were made as follows: active = growth percent below 10; inactive = the rest.
assay-endpoint: growth

INSERT INTO results (molecule, subject_of_test, experimental_result) VALUES
  ('COc1ccc(/C=C/C(=O)c2nnn(-c3ccc(C(=O)O)cc3)c2C)cc1OC', 'SNB-75 CNS', '99.1% (inactive)'),
  ('O=S(=O)(NCCCNc1nccc(-n2cnc3ccccc32)n1)c1ccc(F)cc1', 'SNB-75 CNS', '82.5% (inactive)'),
  ('Cn1cc2c(c1)-c1c(sc3nc(-c4ccc(NC(=O)Nc5cc(C(C)(C)C)on5)cc4)cn13)CC2', 'SNB-75 CNS', '-1.5% (active)'),
  ('O=C(NNc1nc2cc(F)cc(F)c2n2cccc12)c1ccncn1', 'SNB-75 CNS', '19.3% (inactive)'),
  ('N#Cc1c(-c2ccccc2)cc(-c2c[nH]c3ccccc23)nc1-c1c[nH]c2ccccc12', 'SNB-75 CNS', '81.2% (inactive)'),
  ('COc1cc2c3c(n(CCCNC4CCC4)c(=O)c2cc1OC)-c1cc2c(cc1C3=O)OCO2', 'SNB-75 CNS', '-67% (active)'),
  ('O=C(O)c1ccc(-n2cc(CNc3ccc(Cl)cc3)c(-c3ccc(F)cc3)n2)cc1', 'SNB-75 CNS', '131% (inactive)'),
  ('Cn1cc(-c2nn3cc(-c4ccncc4)nc3s2)c2cc(Cl)ccc21', 'SNB-75 CNS', '88.6% (inactive)'),
  ('O=C1c2cc(Br)ccc2-n2c1nc1cc(Br)ccc1c2=O', 'SNB-75 CNS', '68.3% (inactive)'),
  ('C#CCOc1ccc(C(Nc2cc(Cl)ccc2Cl)c2nnnn2C2CCCCC2)cc1 (stereo not given)', 'SNB-75 CNS', '95.1% (inactive)'),
  ('CC(=O)Nc1nc2c(s1)C1=CC[C@H]3[C@@H]4CC[C@H](C(C)=O)[C@@]4(C)CC[C@@H]3[C@@]1(C)CC2', 'SNB-75 CNS', '47.8% (inactive)'),
  ('O=C(CN1CCN(c2cc(=O)n(-c3ccccc3)c3ccccc23)CC1)Nc1ccc([N+](=O)[O-])cc1', 'SNB-75 CNS', '88% (inactive)'),
  ('COc1ccc(/C=C/C(=O)c2nnn(-c3ccc(Br)cc3)c2C)cc1OC', 'SNB-75 CNS', '81.6% (inactive)'),
  ('C=C(C)[C@@H]1CC[C@]2(C(=O)ON)CC[C@]3(C)[C@H](CC[C@@H]4[C@@]5(C)C/C(=C/c6ccc(Br)cc6)C(=O)C(C)(C)[C@@H]5CC[C@]43C)[C@@H]12', 'SNB-75 CNS', '104% (inactive)'),
  ('CC(=O)NC(C)(C)C(=O)N1CCC[C@H]1C(=O)NC(C)(C)C(=O)N[C@@H](C)C(=O)NC(C)(C)C(=O)N[C@@H](C)C(=O)N[C@@H](CCC(N)=O)C(=O)NC(C)(C)C(=O)N[C@H](C(=O)NC(C)(C)C(=O)NCC(=O)N[C@@H](CC(C)C)C(=O)NC(C)(C)C(=O)N1CCC[C@H]1C(=O)N[C@H](C(=O)NC(C)(C)C(=O)NC(C)(C)C(=O)N[C@@H](CCC(N)=O)C(=O)N[C@@H](CCC(N)=O)C(=O)N[C@H](CO)Cc1ccccc1)C(C)C)C(C)C', 'SNB-75 CNS', '33.4% [4.25 µM] (inactive)');

###

Let's look at some molecules and their measured growth.
System: CAKI-1 renal
protocol-text: NCI-60 one-dose screen, 48 h (100 = growth as untreated, 0 = no growth, -100 = all killed)
measurement-setup: 10 µM
This is part of a sample that, as a whole, favours compounds with a hit. Of some 83,000 tested, about 20% had one in any assay.
assay-endpoint: growth (%)

INSERT INTO measurements (structure_smiles, assay_endpoint, unit_of_measurement, experimental_result) VALUES
  ('Cc1cn(-c2cc(NC(=O)c3cncc(C#Cc4cnc5ccc(O[C@@H]6CCOC6)nn45)c3)cc(C(F)(F)F)c2)cn1', 'growth', '%', 1.07),
  ('CC(C)(C)OC(=O)N1CCN(S(=O)(=O)/N=C2\NC(=O)NC2=C(Cl)Cl)CC1', 'growth', '%', 98.8),
  ('O=C1Nc2cc(OC(F)(F)F)ccc2Oc2ccc(-c3ccnc(N4CCNCC4)c3)cc21', 'growth', '%', -36.1),
  ('COc1ccc(C(=O)c2c(N)c(C#N)cn2-c2cccc(OC)c2)cc1', 'growth', '%', 30.5),
  ('O=C(Cn1cc(CN2C(=O)c3ccc([N+](=O)[O-])cc3C2=O)nn1)Nc1ccc(F)cc1Cl', 'growth', '%', 89.9);
